# Test system: Danio rerio Tg(wt1b:EGFP) embryo, pronephros
# experiment-summary: glomerular separation, fold change vs DMSO control; higher = glomeruli further apart (abnormal)
# assay-setup: 25 µM; exposure: 24-48 hpf
Where a name gives a salt, the structure may show the parent alone.
In this section we review reported glomerular separation values for a set of compounds.

Field request: glomerular separation | item: Cc1cn[nH]c1 [Fomepizole] 0.953

What about this compound? CN(N=O)C(=O)N[C@@H](C=O)[C@@H](O)[C@H](O)[C@H](O)CO 0.671

What about this compound? CC(C)(C(=O)c1cccnc1)c1cccnc1 0.85

What about this compound? CCCOc1ccc2[nH]c(NC(=O)OC)nc2c1 5.39

What about this compound? C[N+](C)(C)CCOC(N)=O 0.868

What about this compound? O=C(Oc1cccc2cccnc12)c1ccccc1 3.04

What about this compound? N=C(N)NC(=O)Cc1c(Cl)cccc1Cl [Guanfacine hydrochloride] 0.827

What about this compound? CC(C)(C#N)c1cc(Cn2cncn2)cc(C(C)(C)C#N)c1 1.2

What about this compound? NC1CCN(c2nc3c(cc2F)c(=O)c(C(=O)O)cn3-c2ccc(F)cc2F)C1 (stereo unspecified) [Tosufloxacin hydrochloride] 0.995

What about this compound? CCN(CC)C(=O)N1CCN(C)CC1 [Diethylcarbamazine citrate] 0.96

What about this compound? CN1C(C(=O)Nc2ccccn2)=C(O)c2ccccc2S1(=O)=O 6.43

What about this compound? CC(=O)[C@@]1(O)CC[C@H]2[C@@H]3C[C@H](C)C4=CC(=O)C=C[C@]4(C)[C@@]3(F)[C@@H](O)C[C@@]21C 1.11

What about this compound? CCN(CC)CCOC(=O)C(Cc1cccc2ccccc12)CC1CCCO1 (stereo unspecified) [Nafronyl oxalate] 1.2

What about this compound? Cc1ccc(N(CC2=NCCN2)c2cccc(O)c2)cc1 [Phentolamine hydrochloride] 1.13

What about this compound? CC1(C)S[C@@H]2[C@H](NC(=O)[C@H](N)c3ccc(O)cc3)C(=O)N2[C@H]1C(=O)O 1.13

What about this compound? CC(=O)Nc1ccc(OCC(O)CNC(C)C)cc1 (stereo unspecified) 1.01

---

# Tested on: Danio rerio Tg(wt1b:EGFP) embryo, pronephros
# experiment-summary: pronephric angle neck segment to proximal convoluted tubule (mean of left and right), fold change vs DMSO control; higher = larger pronephric angle
# assay-setup: 25 µM; exposure: 24-48 hpf
In this section we review reported pronephric angle neck segment values for a set of molecules.
Reply: number alone, nothing else.

Examples with answers:
In [3]: df
Out[3]:
                                   molecule                           target_of_assay  endpoint_value
0  CNS(=O)(=O)Cc1ccc2[nH]cc(CCN(C)C)c2c1 [Sumatriptan succinate]  Danio rerio Tg(wt1b:EGFP) embryo, pronephros               1
1                        C[C@H]1NC(=O)NC1=O  Danio rerio Tg(wt1b:EGFP) embryo, pronephros            1.02
2             NC(=O)c1cccnc1 [Nicotinamide]  Danio rerio Tg(wt1b:EGFP) embryo, pronephros           0.985

# returns recorded pronephric angle neck segment (system: Danio rerio Tg(wt1b:EGFP) embryo, pronephros) for NC(=O)N/N=C/c1ccc([N+](=O)[O-])o1 0.982

---

# Test system: Danio rerio Tg(wt1b:EGFP) embryo, pronephros
# experiment-summary: glomerular separation, fold change vs DMSO control; higher = glomeruli further apart (abnormal)
# assay-setup: 25 µM; exposure: 24-48 hpf
Counter-ions that a name gives are not always drawn.
In this section we review reported glomerular separation values for a set of molecules.
Reply: number alone, nothing else.

Examples with answers:
                                   molecule         endpoint_label  endpoint_value
0  CS(=O)(=O)c1ccc(C2=C(c3ccccc3)C(=O)OC2)cc1  glomerular separation           0.981
1  Clc1ccccc1CN1CCc2sccc2C1 [Ticlopidine hydrochloride]  glomerular separation            1.13
2  Cc1scc2c1N(C(=O)CN1CCN(C)CC1)c1ccccc1NC2=O [Telenzepine dihydrochloride]  glomerular separation           0.967
3  CN(C)CCOc1ccc(/C(=C(/CCCl)c2ccccc2)c2ccccc2)cc1  glomerular separation           0.881
4       COc1ncnc(NS(=O)(=O)c2ccc(N)cc2)c1OC  glomerular separation           0.694
5  CC(C(=O)O)c1ccc(N2Cc3ccccc3C2=O)cc1 (configuration not stated)  glomerular separation            2.27

Field request: glomerular separation | item: COC(=O)C1=C(C#N)NC(C)=C(C(=O)OC(C)C)C1c1cccc([N+](=O)[O-])c1 (configuration not stated) 4.44

---

# Tested on: Danio rerio Tg(wt1b:EGFP) embryo, pronephros
# experiment-summary: glomerular separation, fold change vs DMSO control; higher = glomeruli further apart (abnormal)
# assay-setup: 25 µM; exposure: 24-48 hpf
Counter-ions that a name gives are not always drawn.
endpoint-label: glomerular separation

                                   molecule                           target_of_assay  endpoint_value
0  CC(COc1ccccc1)N(CCCl)Cc1ccccc1 (centres undefined) [Phenoxybenzamine hydrochloride]  Danio rerio Tg(wt1b:EGFP) embryo, pronephros            1.05
1  Cc1ccc(-c2ncc(Cl)cc2-c2ccc(S(C)(=O)=O)cc2)cn1  Danio rerio Tg(wt1b:EGFP) embryo, pronephros           0.967
2  CC1=C(/C=C/C(C)=C/C=C/C(C)=C/C(=O)O)C(C)(C)CCC1  Danio rerio Tg(wt1b:EGFP) embryo, pronephros            3.15

Field request: glomerular separation | item: Cc1c(N(C)C)c(=O)n(-c2ccccc2)n1C 0.645

---

In this section we review reported glomerular width values for a set of molecules.
# Tested on: Danio rerio Tg(wt1b:EGFP) embryo, pronephros
# experiment-summary: glomerular width (mean of left and right), fold change vs DMSO control; higher = wider glomerulus
# assay-setup: 25 µM; exposure: 24-48 hpf
Structures can show the parent of a compound that is named as a salt.

Examples with answers:
In [3]: df
Out[3]:
                                   molecule                           target_of_assay    endpoint_label  endpoint_value
0  OCC(O)CN1CCN(c2ccccc2)CC1 (racemic) [Dropropizine (R,S)]  Danio rerio Tg(wt1b:EGFP) embryo, pronephros  glomerular width               1
1  Clc1ccc(C(Cn2ccnc2)OCc2ccsc2Cl)c(Cl)c1 (stereo not given)  Danio rerio Tg(wt1b:EGFP) embryo, pronephros  glomerular width           0.965
2  COc1ccc(CN(CCN(C)C)c2ccccn2)cc1 [Pyrilamine maleate]  Danio rerio Tg(wt1b:EGFP) embryo, pronephros  glomerular width            1.03

# returns recorded glomerular width (system: Danio rerio Tg(wt1b:EGFP) embryo, pronephros) for CS(=O)(=O)OCCCCOS(C)(=O)=O 0.975

What about this molecule? O=P(O)(O)C(O)(Cc1cccnc1)P(=O)(O)O [Risedronic acid monohydrate] 1.04

What about this molecule? CC(C)C(=O)c1c(C(C)C)nn2ccccc12 0.92

What about this molecule? Nc1ccn([C@@H]2CS[C@H](CO)O2)c(=O)n1 0.984

What about this molecule? COc1ccc(C(=O)NCc2ccc(OCCN(C)C)cc2)cc1OC [Itopride] 0.962

---

# Tested on: Danio rerio Tg(wt1b:EGFP) embryo, pronephros
# experiment-summary: pronephric angle neck segment to proximal convoluted tubule (mean of left and right), fold change vs DMSO control; higher = larger pronephric angle
# assay-setup: 25 µM; exposure: 24-48 hpf
Structures can show the parent of a compound that is named as a salt.
endpoint-label: pronephric angle neck segment
Reply: number alone, nothing else.

Examples with answers:
compound	pronephric angle neck segment
O=C(NCC(O)CO)c1c(I)c(C(=O)NCC(O)CO)c(I)c(N(CCO)C(=O)CO)c1I (stereo not given)	0.981
CCOc1ccccc1OC(c1ccccc1)C1CNCCO1 (stereo not given) [Reboxetine mesylate]	0.99
CCN1CCCC(OC(=O)C(c2ccccc2)c2ccccc2)C1 (stereo not given) [Piperidolate hydrochloride]	0.98
CC(C)(C)NC(=O)[C@@H]1C[C@@H]2CCCC[C@@H]2CN1C[C@@H](O)[C@H](Cc1ccccc1)NC(=O)[C@H](CC(N)=O)NC(=O)c1ccc2ccccc2n1 [Saquinavir mesylate]	0.977

Let us move to another entry and its pronephric angle neck segment.
Field request: pronephric angle neck segment | item: CCN1CCC[C@H]1CNC(=O)c1c(OC)ccc(Br)c1OC [Remoxipride Hydrochloride] 0.976

---

In this section we review reported pronephric angle neck segment values for a set of molecules.
# Tested on: Danio rerio Tg(wt1b:EGFP) embryo, pronephros
# experiment-summary: pronephric angle neck segment to proximal convoluted tubule (mean of left and right), fold change vs DMSO control; higher = larger pronephric angle
# assay-setup: 25 µM; exposure: 24-48 hpf
Structures can show the parent of a compound that is named as a salt.
Reply: number alone, nothing else.

Examples with answers:
>>> df
                                   molecule  endpoint_value
0  CC(=O)Nc1ccc(OCC(O)CNC(C)C)cc1 (stereo not given)            1.02
1   CNC(=C[N+](=O)[O-])NCCSCc1csc(CN(C)C)n1            1.01
2  COc1ccc(-c2ccc(=N)n(CCCC(=O)O)n2)cc1 [Gabazine bromide]            1.02
3  Cc1cccc(C)c1NC(=O)C1CCCCN1C (stereo not given) [Mepivacaine hydrochloride]           0.991

Let us move to another entry and its pronephric angle neck segment.
Field request: pronephric angle neck segment | item: Nc1ccc(C(=O)O)c(O)c1 0.995
